Where do the numbers come from? From ChEMBL document CHEMBL1145135.

# assay_remarks: Partition coefficient (logP)
# Type: physicochemical
# recorded_conditions: octanol/water

compound: Cc1ccc(-n2nc(C(C)(C)C)cc2NC(=O)Nc2ccc(OCCN3CCOCC3)c3ccccc23)cc1 [DORAMAPIMOD]
logP: 4.6

compound: Cc1ccc(-n2nc(C(C)(C)C)cc2NC(=O)Nc2ccc(OCCN3CCOCC3)c3ccccc23)cn1
logP: 3.6

---

Overview of reported pEC50 across a group of compounds:
# assay_target: Tumor necrosis factor (Homo sapiens)
# Sequence (P01375 whole entry): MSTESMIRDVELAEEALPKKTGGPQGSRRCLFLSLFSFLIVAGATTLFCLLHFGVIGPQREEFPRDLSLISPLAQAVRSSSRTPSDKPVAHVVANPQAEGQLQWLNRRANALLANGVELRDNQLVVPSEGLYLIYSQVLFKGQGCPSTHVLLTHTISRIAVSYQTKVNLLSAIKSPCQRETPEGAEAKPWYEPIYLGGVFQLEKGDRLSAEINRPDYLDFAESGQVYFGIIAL
# assay_remarks: Tested for inhibition of Tumor necrosis factor, alpha in human whole blood
# Type: functional, tissue-based
pEC50: −log10 of the molar value.

compound: CC(C)(C)c1cc(NC(=O)Nc2ccc(OCCN3CCOCC3)c3ccccc23)n(-c2ccc(N)cc2)n1
assay_target: Tumor necrosis factor (Homo sapiens)
relation_symbol: =
pEC50: 6.36
//
compound: Cc1ccc(-n2nc(C(C)(C)C)cc2NC(=O)Nc2ccc(OCCN3CCOCC3)c3ccccc23)cn1
assay_target: Tumor necrosis factor (Homo sapiens)
relation_symbol: =
pEC50: 6.28
//
compound: COc1ccc(-n2nc(C(C)(C)C)cc2NC(=O)Nc2ccc(OCCN3CCOCC3)c3ccccc23)cn1
assay_target: Tumor necrosis factor (Homo sapiens)
relation_symbol: <
pEC50: 5.00
//
compound: Cc1ccc(-n2nc(C(C)(C)C)cc2NC(=O)Nc2ccc(OCCc3ccncc3)c3ccccc23)cc1
assay_target: Tumor necrosis factor (Homo sapiens)
relation_symbol: =
pEC50: 6.09
//
compound: CC(C)(C)c1cc(NC(=O)Nc2ccc(OCCN3CCOCC3)c3ccccc23)n(-c2cccc(N)c2)n1
assay_target: Tumor necrosis factor (Homo sapiens)
relation_symbol: =
pEC50: 5.80
//
compound: Cc1ccc(-n2nc(C(C)(C)C)cc2NC(=O)Nc2ccc(OCCN3C[C@H](C)O[C@@H](C)C3)c3ccccc23)cc1
assay_target: Tumor necrosis factor (Homo sapiens)
relation_symbol: =
pEC50: 6.11
//
compound: Cc1ccc(-n2nc(C(C)(C)C)cc2NC(=O)Nc2ccc(OCCn3ccnc3)c3ccccc23)cc1
assay_target: Tumor necrosis factor (Homo sapiens)
relation_symbol: =
pEC50: 5.96
//
compound: Cc1ccc(-n2nc(C(C)(C)C)cc2NC(=O)Nc2ccc(OCCN3CCOCC3)c3ccccc23)cc1 [DORAMAPIMOD]
assay_target: Tumor necrosis factor (Homo sapiens)
relation_symbol: =
pEC50: 6.11
//
compound: CC(C)(C)c1cc(NC(=O)Nc2ccc(OCCN3CCOCC3)c3ccccc23)n(-c2ccccc2)n1
assay_target: Tumor necrosis factor (Homo sapiens)
relation_symbol: =
pEC50: 5.47
//
compound: Cc1ccc(-n2nc(C(C)(C)C)cc2NC(=O)Nc2ccc(OCCN3CC[S+]([O-])CC3)c3ccccc23)cc1
assay_target: Tumor necrosis factor (Homo sapiens)
relation_symbol: =
pEC50: 5.89

---

# assay_target: Mitogen-activated protein kinase 14 (Mus musculus)
# Sequence (P47811 whole entry): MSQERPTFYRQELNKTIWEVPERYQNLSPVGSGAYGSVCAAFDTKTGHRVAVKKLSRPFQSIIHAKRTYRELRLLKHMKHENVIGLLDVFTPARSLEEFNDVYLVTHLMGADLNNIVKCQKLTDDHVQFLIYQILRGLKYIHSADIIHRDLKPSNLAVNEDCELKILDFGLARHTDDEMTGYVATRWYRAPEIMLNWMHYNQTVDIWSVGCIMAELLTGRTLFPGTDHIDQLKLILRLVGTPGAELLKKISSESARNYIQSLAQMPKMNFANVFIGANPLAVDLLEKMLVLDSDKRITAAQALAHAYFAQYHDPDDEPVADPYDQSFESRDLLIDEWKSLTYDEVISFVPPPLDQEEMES
# assay_remarks: Kd value and murine Mitogen-activated protein kinase p38 alpha complex was calculated

structure_as_smiles: CC(=O)Nc1cccc(-n2nc(C(C)(C)C)cc2NC(=O)Nc2ccc(OCCN3CCOCC3)c3ccccc23)c1
Kd / nM: 9.9

structure_as_smiles: Cc1ccc(-n2nc(C(C)(C)C)cc2NC(=O)Nc2ccc(OCCN3C[C@H](C)O[C@@H](C)C3)c3ccccc23)cc1
Kd / nM: 0.096

structure_as_smiles: COc1ccc(CCOc2ccc(NC(=O)Nc3cc(C(C)(C)C)nn3-c3ccc(C)cc3)c3ccccc23)cc1OC
Kd / nM: 3.5

---

# assay_target: Mitogen-activated protein kinase 14 (Mus musculus)
# assay_remarks: Kd value and murine Mitogen-activated protein kinase p38 alpha complex was calculated
// classify: if (Kd < 10 nM) Met else Not met

structure_as_smiles: Cc1ccc(-n2nc(C(C)(C)CO)cc2NC(=O)Nc2ccc(OCCN3CCOCC3)c3ccccc23)cc1
group: Not met
//
structure_as_smiles: CC(C)(C)c1cc(NC(=O)Nc2ccc(OCCN3CCOCC3)c3ccccc23)n(C2CCCCC2)n1
group: Not met
//
structure_as_smiles: Cc1ccc(-n2nc(C(C)(C)C)cc2NC(=O)Nc2ccc(OCCc3ccncc3)c3ccccc23)cc1
group: Met
//
structure_as_smiles: CC(=O)Nc1ccc(-n2nc(C(C)(C)C)cc2NC(=O)Nc2ccc(OCCN3CCOCC3)c3ccccc23)cc1
group: Not met
//
structure_as_smiles: Cc1ccc(-n2nc(C(C)(C)C)cc2NC(=O)Nc2ccc(OCCN3CCNCC3)c3ccccc23)cc1
group: Not met
//
structure_as_smiles: Cc1ccc(-n2nc(C(C)(C)C)cc2NC(=O)Nc2ccc(OCCN3CCSCC3)c3ccccc23)cc1
group: Met
//
structure_as_smiles: CC1(c2cc(NC(=O)Nc3ccc(OCCN4CCOCC4)c4ccccc34)n(-c3ccccc3)n2)CCCCC1
group: Met
//
structure_as_smiles: CC(C)c1cc(NC(=O)Nc2ccc(OCCN3CCOCC3)c3ccccc23)n(-c2ccccc2)n1
group: Met
//
structure_as_smiles: CC(C)(C)c1cc(NC(=O)Nc2ccc(OCCN3CCOCC3)c3ccccc23)n(-c2ccc(N)cc2)n1
group: Met
//
structure_as_smiles: COc1ccc(-n2nc(C(C)(C)C)cc2NC(=O)Nc2ccc(OCCN3CCOCC3)c3ccccc23)cn1
group: Met
//
structure_as_smiles: CCOc1ccc(NC(=O)Nc2cc(C(C)(C)C)nn2-c2ccc(C)cc2)c2ccccc12
group: Not met
//
structure_as_smiles: CC(C)(C)c1cc(NC(=O)Nc2ccc(OCCN3CCOCC3)c3ccccc23)n(Cc2ccccc2)n1
group: Not met
//
structure_as_smiles: CC(C)(C)c1cc(NC(=O)Nc2ccc(OCCN3CCOCC3)c3ccccc23)n(-c2ccccc2)n1
group: Met
